Please provide measured pEC50 for the entries that follow.
Test system: Huh-7
assay-overview: Effective concentration required to inhibit replication of subgenomic HCV RNA in HUH-7 cells
Assay type: functional, cell-based
experimental-setup: Homo sapiens
Lab note: report pEC50 as minus log10 of the concentration in molar units, number only.

Query: What does the data say about its pEC50? Entry: CN1CCN(C(=O)Cn2c(-c3ccccc3)c(C3CCCC3)c3ccc(C(=O)O)cc32)CC1
Reply: 6.10

Query: What does the data say about its pEC50? Entry: CC(C)N(C)C(=O)Cn1c(-c2ccccc2)c(C2CCCCC2)c2ccc(C(=O)O)cc21
Reply: 5.80

Query: What does the data say about its pEC50? Entry: CC(C)N(C)C(=O)Cn1c(-c2ccc(Cl)cc2)c(C2CCCCC2)c2ccc(C(=O)O)cc21
Reply: 6.05

Query: What does the data say about its pEC50? Entry: CN(C)C1CCN(C(=O)Cn2c(-c3ccccc3)c(C3CCCCC3)c3cc(C(=O)O)ccc32)C1 (centres undefined)
Reply: 5.30

Query: What does the data say about its pEC50? Entry: O=C(O)c1ccc2c(C3CCCCC3)c(-c3ccccc3)n(CC(=O)N3CCS(=O)(=O)CC3)c2c1
Reply: 5.80

Query: What does the data say about its pEC50? Entry: CN(C)C(=O)CN(C)C(=O)Cn1c(-c2ccccc2)c(C2CCCCC2)c2ccc(C(=O)O)cc21
Reply: 5.72
